Each item that follows carries a reported STK11 functional score.
B1: library; numbered along this chain (parent)
chain: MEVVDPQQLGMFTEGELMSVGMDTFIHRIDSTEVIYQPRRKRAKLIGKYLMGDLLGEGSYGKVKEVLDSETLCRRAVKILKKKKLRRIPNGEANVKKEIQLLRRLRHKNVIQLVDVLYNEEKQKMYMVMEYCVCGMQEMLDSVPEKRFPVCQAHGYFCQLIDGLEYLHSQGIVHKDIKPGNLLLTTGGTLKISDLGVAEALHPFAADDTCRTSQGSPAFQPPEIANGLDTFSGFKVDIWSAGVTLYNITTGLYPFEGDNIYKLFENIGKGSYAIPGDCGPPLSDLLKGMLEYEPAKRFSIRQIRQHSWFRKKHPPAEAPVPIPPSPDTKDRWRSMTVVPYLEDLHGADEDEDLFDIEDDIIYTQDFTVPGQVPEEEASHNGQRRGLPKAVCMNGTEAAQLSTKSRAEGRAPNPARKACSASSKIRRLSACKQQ

- Variants of: B1
- assay method text: STK11 functional score (HeLa growth suppression), rescaled enrichment; synonymous median = 1, nonsense median = 0 (normalised score)
- details: with HeLa; variant type: missense
experimental readout: STK11 functional score

M392F
1.17
D207E
1.48
S232C
1.17
E374W
1.55
A397L
1.27
C73F
0.572
D359I
0.856
R415Y
1.49
Q302L
1.45
R40S
0.887
S299I
1.25
N393Y
1.51
D358Q
1.49
K83Y
1.15
T209H
1.34
E199Q
0.887
K403R
1.03
L101V
0.836
D343P
1.33
D258A
1.33
E349P
1.41
F231Y
0.865
G171I
1.46
A406G
1.33
V150H
1.26
A410K
1.6
V236F
1.21
C73P
0.227
C210F
1.04
S213T
1.05
N380T
1.31
I35M
0.908
T336R
1.54
R426Y
1.54
C391A
1.51
K312C
1.17
F204H
1.67
M125S
0.769
I79R
0.967
I46S
0.762
K78Y
-0.374
G242T
-0.128
V66D
0.0679
D237H
1.53
E376W
0.781
A206R
1.64
T244A
0.738
L341V
1.33
K97P
1.1
C278N
1.12
G346H
1.6
G276W
1.36
E130Y
0.104
R301L
1.6
Y166P
0.994
L45C
1.08
C278R
1.51
G188R
1.19
G242D
0.0263
Q382V
1.12
G394H
1.6
V197L
1.05
D30P
1.67
L167H
-0.00514
V337A
1.24
S428K
0.386
S59V
1.55
I360L
1.13
E357T
1.56
G288I
-0.0856
C418A
1.62
I99S
0.869
P281F
1.23
A205W
1.7
L427I
1.36
L228Y
1.25
S19G
1.64
D176H
-0.154
L353C
1.17
A389K
1.61
K311I
1.26
P6T
0.874
W332E
1.61
S334C
0.325
D208L
1.36
N259A
-0.00474
P275M
0.445
G135I
1.69
H27D
1.22
Y131Q
-0.0871
S283N
1.4
